Reported pEC50 values follow for various compounds
biological target: UniProtKB A0A8I3MH52; assay: Dog whole blood (dWB) assay, IFNb secretion by ELISA; details: canine Interferon-beta (IFNb) ELISA, 4 h incubation at 37° C.
Sequence (A0A8I3MH52 1-374): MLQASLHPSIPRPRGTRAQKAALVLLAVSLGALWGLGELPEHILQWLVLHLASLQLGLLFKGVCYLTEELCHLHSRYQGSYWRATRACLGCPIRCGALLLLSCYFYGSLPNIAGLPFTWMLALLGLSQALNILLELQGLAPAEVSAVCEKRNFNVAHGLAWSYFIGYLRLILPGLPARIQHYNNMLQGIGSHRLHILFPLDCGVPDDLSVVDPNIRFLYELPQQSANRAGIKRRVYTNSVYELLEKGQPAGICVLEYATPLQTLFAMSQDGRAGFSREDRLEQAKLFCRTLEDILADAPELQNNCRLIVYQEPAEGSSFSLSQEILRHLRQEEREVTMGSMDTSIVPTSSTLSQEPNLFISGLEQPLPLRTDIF
In textbook form, pEC50 equals minus log to base ten of the concentration in mol/L.

• Cc1cc(F)cc2c(-c3ccc(F)c4nn(C)cc34)nn(-c3ccc(N4C[C@@H]5[C@H](C4)[C@H]5C(=O)O)nc3)c12 = 6.22
• CC(=O)N1CCN(c2ccc(-n3nc(-c4c(F)cc(F)c5nn(C)cc45)c4cc(F)cc(C)c43)cn2)CC1 = 6.97
• Cc1cccc2c(-c3cccc4nn(C)c(F)c34)nn(-c3ccc(N4CCOC(CC(=O)O)C4)nc3)c12 (single isomer, unassigned) [Example 72-1] = 6.09
• Cc1cc(F)cc2c(-c3cccc4nn(C)c(F)c34)nn(-c3ccc(N4C[C@@H]5[C@H](C4)[C@H]5C(=O)O)nc3)c12 = 6.46
• Cc1cccc2c(-c3c(F)cc(F)c4nn(C)cc34)nn(-c3ccc(N4CCC(C(=O)O)CC4)nc3)c12 = 6.41

Task: Give pEC50 only, for `Cc1cccc2c(-c3c(F)ccc4nn(C)cc34)nn(-c3ccc(N4CC[C@@H](CC(=O)O)C4)nc3)c12` , using UniProtKB A0A8I3MH52 data.
Output: 6.57

====

Delta TM values, listed per item
test system: dog STING (dSTING); assay: Dog differential scanning fluorimetry (DSF) assay, thermal shift of dog STING protein; assay type: binding; conditions: DSF (dDSF); 100 μM compound, 3 μM dog STING protein; Tm with ligand minus Tm of protein alone
All answers are understood in °C, so give the number only.

* Cc1cccc2c(-c3c(F)ccc4nn(C)cc34)nn(-c3ccc(N4CC5CCC4CC5C(=O)O)nc3)c12 (single isomer, unassigned) [Example 28-4] | 37.9

Task: Return reported Delta TM. Input compound: Cc1cccc2c(-c3c(F)cc(F)c4nn(C)cc34)nn(-c3ccc(N4CC5CCC4CC5C(=O)O)nc3)c12 (single isomer, unassigned) [Example 48-1]
Output: 23.9

Task: Read the entry `Cc1cccc2c(-c3cc(F)cc4nn(C)c(F)c34)nn(-c3ccc(N4C[C@@H]5[C@H](C4)[C@H]5C(=O)O)nc3)c12` and write its reported Delta TM.
Output: 21.8

Task: Retrieve Delta TM measured for `Cc1cccc2c(-c3ccc(F)c4nn(C)cc34)nn(-c3ccc(N4C[C@@H]5[C@H](C4)[C@H]5C(=O)O)nc3)c12` and print it.
Output: 32.2

Task: Kindly indicate its recorded Delta TM. Item: `Cc1cc(F)cc2c(-c3c(F)cc(F)c4nn(C)cc34)nn(-c3ccc(N4C[C@@H]5[C@H](C4)[C@H]5C(=O)O)nc3)c12`
Output: 36.8

Task: // Input: `Cc1cccc2c(-c3cc(F)cc4nn(C)cc34)nn(-c3ccc(N4CCO[C@@H](CC(=O)O)C4)nc3)c12` . Output its Delta TM only.
Output: 18.0

Task: Look up and state reported Delta TM for Cc1cccc2c(-c3cccc4nn(C)c(F)c34)nn(-c3ccc(N4CC5CCC4CC5C(=O)O)nc3)c12 (single isomer, unassigned) [Example 20-4]
Output: 36.9

Task: State its Delta TM for this compound: `Cc1cccc2c(-c3cccc4nn(C)c(F)c34)nn(-c3ccc(N4CCC(C(=O)O)CC4)nc3)c12`
Output: 34.5

Task: Hello, please tell me recorded Delta TM for this one: `Cc1cccc2c(-c3c(F)ccc4nn(C)cc34)nn(-c3ccc(N4C[C@@H]5[C@H](C4)[C@H]5C(=O)O)nc3)c12`
Output: 36.5
